FYI, the data here is from ChEMBL document CHEMBL5291721.

biological target: Melanocortin receptor 3 (Homo sapiens, UniProt P41968); further: assay procedure not described here
Sequence (P41968 whole entry): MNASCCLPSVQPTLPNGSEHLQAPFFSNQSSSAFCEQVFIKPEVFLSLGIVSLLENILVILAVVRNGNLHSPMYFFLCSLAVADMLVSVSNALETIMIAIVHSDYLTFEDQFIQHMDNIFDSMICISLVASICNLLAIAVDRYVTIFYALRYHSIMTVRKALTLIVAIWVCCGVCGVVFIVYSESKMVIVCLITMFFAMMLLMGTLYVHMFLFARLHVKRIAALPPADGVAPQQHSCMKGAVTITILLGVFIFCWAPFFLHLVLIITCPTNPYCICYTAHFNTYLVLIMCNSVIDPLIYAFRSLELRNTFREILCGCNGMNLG
REPORTED_METRIC: AC50

Recorded results for 3 compounds are shown here.
{"COMPOUND": "N=C(N)c1ccc2cc(OC(=O)c3ccc(N=C(N)N)cc3)ccc2c1", "SYSTEM": "Melanocortin receptor 3 (Homo sapiens, UniProt P41968)", "AC50": "> 30 µM"}
{"COMPOUND": "COCCOC(=O)C1=C(C)NC(C)=C(C(=O)OC/C=C/c2ccccc2)C1c1cccc([N+](=O)[O-])c1 (stereo unspecified)", "SYSTEM": "Melanocortin receptor 3 (Homo sapiens, UniProt P41968)", "AC50": "> 30 µM"}
{"COMPOUND": "CC1(C)C(C=C(Cl)Cl)C1C(=O)OCc1cccc(Oc2ccccc2)c1 (stereo unspecified)", "SYSTEM": "Melanocortin receptor 3 (Homo sapiens, UniProt P41968)", "AC50": "> 10 µM"}

query: Fill in the blank: the reported AC50 of CCc1oc2ccccc2c1C(=O)c1cc(Br)c(O)c(Br)c1 is ____.
result: > 30 µM

query: Continue with NS(=O)(=O)c1cc(C2(O)NC(=O)c3ccccc32)ccc1Cl (stereo unspecified)
result: > 10 µM

query: Lookup N#Cc1ccccc1-c1cc(-c2ccccn2)cn(-c2ccccc2)c1=O
result: > 30 µM

query: Quick one: CNCCC=C1c2ccccc2CCc2ccccc21
result: 11 µM

query: Also check CCSc1ccc2c(c1)N(CCCN1CCN(C)CC1)c1ccccc1S2
result: 18 µM

query: Follow-up entry: COc1ccc(Cc2nccc3cc(OC)c(OC)cc23)cc1OC
result: > 30 µM

query: Same question, CCN(CC)C(=O)C1CN2CCc3cc(OC)c(OC)cc3C2CC1OC(C)=O (stereo unspecified) [BENZQUINAMIDE] this time
result: > 30 µM

query: Another: CC(C)(C)NCC(O)c1cc(Cl)c(N)c(Cl)c1 (stereo unspecified)
result: > 30 µM

query: Now try CNC(=O)Oc1ccc2c(c1)[C@]1(C)CCN(C)[C@@H]1N2C .
result: > 30 µM

query: What do we get for CC(=O)OCC[N+](C)(C)C ?
result: > 30 µM
